target: CFTR-mediated chloride transport in human intestinal epithelial enteroid cells (Homo sapiens, UniProt P13569); experiment: Membrane potential dye, Enteroid Assay A; type: cell-based; conditions: Enteroid Assay A
Sequence (P13569 with tags, fused parts or gaps DEL508-508): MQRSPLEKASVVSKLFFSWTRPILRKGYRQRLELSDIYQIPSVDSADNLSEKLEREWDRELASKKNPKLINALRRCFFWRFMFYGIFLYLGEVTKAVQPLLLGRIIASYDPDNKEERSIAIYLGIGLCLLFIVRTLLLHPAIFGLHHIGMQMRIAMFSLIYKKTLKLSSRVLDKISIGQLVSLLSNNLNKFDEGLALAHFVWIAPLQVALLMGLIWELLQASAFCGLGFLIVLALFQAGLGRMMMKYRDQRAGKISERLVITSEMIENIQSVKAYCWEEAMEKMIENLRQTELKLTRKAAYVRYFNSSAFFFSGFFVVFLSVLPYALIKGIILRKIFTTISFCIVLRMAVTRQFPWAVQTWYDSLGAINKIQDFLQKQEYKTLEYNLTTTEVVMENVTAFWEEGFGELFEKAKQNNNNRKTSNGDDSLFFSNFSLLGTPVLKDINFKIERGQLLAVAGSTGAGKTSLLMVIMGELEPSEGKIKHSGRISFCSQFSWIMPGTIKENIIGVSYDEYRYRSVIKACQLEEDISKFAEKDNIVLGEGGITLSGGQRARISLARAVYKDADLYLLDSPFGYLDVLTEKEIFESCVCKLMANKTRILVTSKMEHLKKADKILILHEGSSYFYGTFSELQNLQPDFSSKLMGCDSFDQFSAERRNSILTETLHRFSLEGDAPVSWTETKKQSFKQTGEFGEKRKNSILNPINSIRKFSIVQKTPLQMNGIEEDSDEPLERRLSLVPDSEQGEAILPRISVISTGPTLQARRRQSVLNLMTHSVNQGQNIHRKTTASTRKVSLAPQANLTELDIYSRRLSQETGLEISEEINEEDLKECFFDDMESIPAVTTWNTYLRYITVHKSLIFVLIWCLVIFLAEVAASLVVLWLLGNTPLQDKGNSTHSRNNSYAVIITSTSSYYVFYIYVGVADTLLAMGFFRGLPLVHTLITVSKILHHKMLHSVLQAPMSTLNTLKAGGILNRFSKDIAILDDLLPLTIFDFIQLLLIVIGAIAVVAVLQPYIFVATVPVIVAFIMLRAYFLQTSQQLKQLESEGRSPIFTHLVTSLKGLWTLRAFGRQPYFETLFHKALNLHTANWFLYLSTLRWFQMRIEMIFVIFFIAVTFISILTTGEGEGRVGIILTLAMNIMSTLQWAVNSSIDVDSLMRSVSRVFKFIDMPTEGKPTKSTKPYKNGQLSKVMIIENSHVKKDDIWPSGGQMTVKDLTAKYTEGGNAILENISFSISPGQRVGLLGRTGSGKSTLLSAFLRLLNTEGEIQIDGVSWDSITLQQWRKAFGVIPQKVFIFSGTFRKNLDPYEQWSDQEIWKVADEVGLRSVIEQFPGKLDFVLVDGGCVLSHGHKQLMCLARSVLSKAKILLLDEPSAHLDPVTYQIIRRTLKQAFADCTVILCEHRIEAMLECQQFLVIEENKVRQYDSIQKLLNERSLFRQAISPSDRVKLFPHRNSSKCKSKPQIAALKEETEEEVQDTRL
Reported Metric: Ent. A Max Activity (%)

// known answers, use as guide
Entry Cc1cccc(C)c1-c1cc2nc(n1)NS(=O)(=O)c1cccc(c1)C(=O)N1C[C@@H](CN(CC(C)(C)C)C[C@H]1CC(C)C)O2 [Compound 104] : reported Ent. A Max Activity (%) = ?
+++ (+++ is >600%)

Entry Cc1cccc(C)c1-c1cc2nc(n1)NS(=O)(=O)c1cccc(c1)C(=O)N1CCN(C(=O)OCc3ccccc3)C[C@H](O2)[C@H]1C (single isomer, unassigned) [Compound 112] : reported Ent. A Max Activity (%) = ?
+++ (+++ is >600%)

Entry Cc1cccc(C)c1-c1cc2nc(n1)NS(=O)(=O)c1cccc(c1)C(=O)N1CCN(CC3CC(C(=O)O)C3)C[C@H](C1)O2 (stereo partly drawn) [Compound 29] : reported Ent. A Max Activity (%) = ?
+++ (+++ is >600%)

Entry Cc1cccc(C)c1-c1cc2nc(n1)NS(=O)(=O)c1cccc(c1)C(=O)N1CCCN(C(=O)OC(C)(C)C)CC(C1)O2 (stereo not drawn) [Compound 359] : reported Ent. A Max Activity (%) = ?
++ (++ is 30-60%)

Entry Cc1cccc(C)c1-c1cc2nc(n1)NS(=O)(=O)c1cccc(c1)C(=O)N1CCCN(CCC(C)(C)C)CC(C1)O2 (stereo not drawn) [Compound 206] : reported Ent. A Max Activity (%) = ?
++ (++ is 30-60%)

Entry Cc1cccc(C)c1-c1cc2nc(n1)NS(=O)(=O)c1cccc(c1)C(=O)N1CC(CCCO2)CC1(C)C (stereo not drawn) [Compound 356] : reported Ent. A Max Activity (%) = ?
++ (++ is 30-60%)

Entry Cc1cccc(C)c1-c1cc2nc(n1)NS(=O)(=O)c1cccc(c1)C(=O)N1C[C@@H](CNC[C@H]1CC(C)C)O2 [Compound 101] : reported Ent. A Max Activity (%) = ?
++ (++ is 30-60%)

Entry CCC(CC)N1CCN2C[C@@H](C1)Oc1cc(-c3c(C)cccc3C)nc(n1)NS(=O)(=O)c1cccc(c1)C2=O [Compound 11] : reported Ent. A Max Activity (%) = ?
+++ (+++ is >600%)

Entry Cc1cccc(C)c1-c1cc2nc(n1)NS(=O)(=O)c1cccc(c1)C(=O)N1CCN(C(=O)OC(C)(C)C)[C@H](CC(C)C)[C@@H](C1)O2 [Compound 115] : reported Ent. A Max Activity (%) = ?
++ (++ is 30-60%)

Entry Cc1cccc(C)c1-c1cc2nc(n1)NS(=O)(=O)c1cccc(c1)C(=O)N1CCN(C3CCC(C)(C)C3)C[C@H](C1)O2 (single isomer, unassigned) [Compound 37] : reported Ent. A Max Activity (%) = ?
+++ (+++ is >600%)

For every item in the list below, what is its measured Ent. A Max Activity (%)?
1. Cc1cccc(C)c1-c1cc2nc(n1)NS(=O)(=O)c1cccc(c1)C(=O)N1CCN(C(=O)CC34CC5CC(CC(C5)C3)C4)C[C@H](C1)O2 [Compound 79]
2. Cc1cccc(C)c1-c1cc2nc(n1)NS(=O)(=O)c1cccc(c1)C(=O)N1CCN(C3CCCC3)C[C@H](C1)O2 [Compound 6]

1. +++ (+++ is >600%)
2. +++ (+++ is >600%)

###

Biological target: CFTR-mediated chloride transport in human intestinal epithelial enteroid cells (Homo sapiens)
Test: Membrane potential dye, Enteroid Assay A
Format: cell-based
Conditions: Enteroid Assay A
Protocol: Base medium (ADF+++) consisted of Advanced DMEM/Ham's F12, 2 mM Glutamax, 10 mM HEPES, […] penicillin/streptomycin. Bath 1 Buffer consisted of 1 mM MgCl2, 160 mM NaCl, 4.5 mM KCl, 10 mM HEPES, 10 mM Glucose, 2 mM CaCl2. […] Briefly, cells were washed 5 times in Bath 1 Buffer. […] Chloride transport was initiated by addition of Chloride Free Dye Stimulation Solution and the fluorescence signal was read for 15 min. […]
Reported Metric: Ent. A Max Activity (%)

// known answers, use as guide
Entry Cc1cccc(C)c1-c1cc2nc(n1)NS(=O)(=O)c1cccc(c1)C(=O)N1CC(O2)C2CCCN(C)C2C1 (single isomer, unassigned) [Compound 202] : reported Ent. A Max Activity (%) = ?
+ (+ is <30%)

Entry Cc1cccc(C)c1-c1cc2nc(n1)NS(=O)(=O)c1cccc(c1)C(=O)N1CCN(CCCCO)C[C@H](C1)O2 : reported Ent. A Max Activity (%) = ?
+++ (+++ is >600%)

Entry Cc1cccc(C)c1-c1cc2nc(n1)NS(=O)(=O)c1cccc(c1)C(=O)N1C[C@@H](CN(C(=O)OC(C)(C)C)C[C@@H]1CC(C)(C)C)O2 : reported Ent. A Max Activity (%) = ?
++ (++ is 30-60%)

Entry Cc1cccc(C)c1-c1cc2nc(n1)NS(=O)(=O)c1cccc(c1)C(=O)N1Cc3cc(C(C)(C)C)ccc3C(O2)[C@H]1CC(C)(C)C (stereo in doubt) : reported Ent. A Max Activity (%) = ?
+++ (+++ is >600%)

Entry Cc1cccc(C)c1-c1cc2nc(n1)NS(=O)(=O)c1cccc(c1)C(=O)N1Cc3cc(C(C)(C)C)ccc3[C@@H](O2)[C@H]1CC(C)C : reported Ent. A Max Activity (%) = ?
+++ (+++ is >600%)

Entry Cc1cccc(C)c1-c1cc2nc(n1)NS(=O)(=O)c1cccc(c1)C(=O)N1CCN(C(=O)OCc3ccccc3)C[C@@H](O2)[C@H]1C (single isomer, unassigned) : reported Ent. A Max Activity (%) = ?
+ (+ is <30%)

For every item in the list below, what is its measured Ent. A Max Activity (%)?
1. Cc1cccc(C)c1-c1cc2nc(n1)NS(=O)(=O)c1cccc(c1)C(=O)N1CCN([C@H]3CC[C@@H](F)CC3)C[C@H](C1)O2 (single isomer, unassigned) [Compound 39]
2. Cc1cccc(C)c1-c1cc2nc(n1)NS(=O)(=O)c1cccc(c1)C(=O)N1CCN(CC3CCOC3)C[C@H](C1)O2 (stereo partly shown)
3. Cc1cccc(C)c1-c1cc2nc(n1)NS(=O)(=O)c1cccc(c1)C(=O)N1CCNCC(O2)C1CC(C)C (stereo not shown) [Compound 93]
4. Cc1cccc(C)c1-c1cc2nc(n1)NS(=O)(=O)c1cccc(c1)C(=O)N1CCN(C(=O)CC(C)(C)C)C[C@H](C1)O2
5. Cc1cccc(C)c1-c1cc2nc(n1)NS(=O)(=O)c1cccc(c1)CN1CC(CN(C(=O)OC(C)(C)C)CC1=O)O2 (stereo not shown)

1: +++ (+++ is >600%); 2: +++ (+++ is >600%); 3: +++ (+++ is >600%); 4: +++ (+++ is >600%); 5: ++ (++ is 30-60%)

For every item in the list below, what is its measured Ent. A Max Activity (%)?
1. Cc1cccc(C)c1-c1cc2nc(n1)NS(=O)(=O)c1cccc(c1)C(=O)N1CCN(Cc3ccccc3)CC(C)(C1)O2 (stereo not shown)
2. Cc1cccc(C)c1-c1cc2nc(n1)NS(=O)(=O)c1cccc(c1)CN1CC(CNCC1=O)O2 (stereo not shown)

+++ (+++ is >600%)
+ (+ is <30%)

###

target: CFTR-mediated chloride transport in human intestinal epithelial enteroid cells (Homo sapiens, UniProt P13569); assay: Membrane potential dye, Enteroid Assay A; format: cell-based; conditions: Enteroid Assay A; read-out: Ent. A EC50
Reported Metric: EC50

// known answers, use as guide
Entry Cc1cccc(C)c1-c1cc2nc(n1)NS(=O)(=O)c1cccc(c1)C(=O)N1CCN(CCC(C)(C)C)C[C@@H](O2)[C@H]1CC(C)C : reported EC50 = ?
< 1000 nM

Entry Cc1cccc(C)c1-c1cc2nc(n1)NS(=O)(=O)c1cccc(c1)CN1C[C@@H](CN(CCC(C)(C)C)CC1=O)O2 : reported EC50 = ?
< 1000 nM

Entry Cc1cccc(C)c1-c1cc2nc(n1)NS(=O)(=O)c1cccc(c1)C(=O)N1C[C@@H](CN(CC(C)(C)C)C[C@@H]1CC(C)C)O2 : reported EC50 = ?
< 1000 nM

Entry Cc1cccc(C)c1-c1cc2nc(n1)NS(=O)(=O)c1cccc(c1)C(=O)N1C[C@@H](CNC[C@H]1C(C)C)O2 : reported EC50 = ?
1000 to 3000 nM

Entry Cc1cccc(C)c1-c1cc2nc(n1)NS(=O)(=O)c1cccc(c1)C(=O)N1CCN(Cc3ccccc3)C[C@H](O2)[C@@H]1CC(C)C (single isomer, unassigned) : reported EC50 = ?
< 1000 nM

For every item in the list below, what is its measured EC50?
1. Cc1cccc(C)c1-c1cc2nc(n1)NS(=O)(=O)c1cccc(c1)C(=O)N1CC(C)(C)CC(O2)C1CC(C)C (single isomer, unassigned) [Compound 232]
2. Cc1cccc(C)c1-c1cc2nc(n1)NS(=O)(=O)c1cccc(c1)C(=O)N1C[C@@H](CN(C)C[C@@H]1C(C)C)O2
3. Cc1cccc(C)c1-c1cc2nc(n1)NS(=O)(=O)c1cccc(c1)C(=O)N1CCN(C3CCC4(CCCCC4)CC3)C[C@H](C1)O2
4. Cc1cccc(C)c1-c1cc2nc(n1)NS(=O)(=O)c1cccc(c1)C(=O)N1CCNCC(O2)C1CC(C)C (single isomer, unassigned) [Compound 91]
5. Cc1cccc(C)c1-c1cc2nc(n1)NS(=O)(=O)c1cccc(c1)C(=O)N1CCN(CC(C)(C)C)C[C@H](C1)O2
6. Cc1cccc(C)c1-c1cc2nc(n1)NS(=O)(=O)c1cccc(c1)C(=O)N1C[C@@H](CN(C3CCCC3)C[C@H]1CC(C)C)O2
7. Cc1cccc(C)c1-c1cc2nc(n1)NS(=O)(=O)c1cccc(c1)C(=O)N1CCN(C(C)C)CC1C(Cc1ccccc1)O2 (stereo not drawn)

< 1000 nM
< 1000 nM
< 1000 nM
1000 to 3000 nM
< 1000 nM
< 1000 nM
< 1000 nM
